B1: Kinesin-like protein KIF16B, residues 1213 to 1273; numbered along this chain, Q96L93 (parent)
chain: ETWTVFRRYSRFREMHKTLKLKYAELAALEFPPKKLFGNKDERVIAERRSHLEKYLRDFFS

Variants of: B1
Experiment: abundance fitness (aPCA) (normalised: wild type 0, dead -1); higher = more abundant; growth selection in yeast, the domain comes from the species named
Details: Homo sapiens
Exercise: for every item that follows, state its recorded abundance fitness.
Could you keep your reply to the number by itself?

Which abundance fitness value belongs to ETWTVFRRYSRFREMHKTLKLKYAELAAYEFPPKKLFGNKDERVIAERRSHLEKYLRDFFS [L29Y] ? -0.31

// repeat for ETWTVFRRYSRFREMHKTLKLKYAELAALEFPPKKLFGNKDEYVIAERRSHLEKYLRDFFS [R43Y] and report -0.489

// repeat for ETWTVTRRYSRFREMHKTLKLKYAELAALEFPPKKLFGNKDERVIAERRSHLEKYLRDFFS [F6T] and report -0.352

// repeat for ETWTVFRRYSRFREMHKTLKLKYAELAALEFPPKKLFGNKDERVPAERRSHLEKYLRDFFS [I45P] and report 0.271

// repeat for ETWTVFRRYSRFREMHKTLKLKYGELAALEFPPKKLFGNKDERVIAERRSHLEKYLRDFFS [A24G] and report -0.446

// repeat for ETWTVFRRYSRFRWMHKTLKLKYAELAALEFPPKKLFGNKDERVIAERRSHLEKYLRDFFS [E14W] and report -0.69

// repeat for ETWTVFRRYSRFREMHKTLKLKYAELAALEFPPKKLFGNKDERVIAERRSMLEKYLRDFFS [H51M] and report -0.368

// repeat for NTWTVFRRYSRFREMHKTLKLKYAELAALEFPPKKLFGNKDERVIAERRSHLEKYLRDFFS [E1N] and report -0.153

// repeat for ETWTVFRRYSRFREMHKTLKLKYAELAALEFPPKKLFGNKDERVCAERRSHLEKYLRDFFS [I45C] and report 0.133

// repeat for ETWTVFRRYSRFREMHKTLKLKYAELAALEFPHKKLFGNKDERVIAERRSHLEKYLRDFFS [P33H] and report 0.107

// repeat for ETWTVFRRYSNFREMHKTLKLKYAELAALEFPPKKLFGNKDERVIAERRSHLEKYLRDFFS [R11N] and report -0.122
